- measured target: Beta-3 adrenergic receptor (Homo sapiens, UniProt P13945)
- Sequence (P13945 whole entry): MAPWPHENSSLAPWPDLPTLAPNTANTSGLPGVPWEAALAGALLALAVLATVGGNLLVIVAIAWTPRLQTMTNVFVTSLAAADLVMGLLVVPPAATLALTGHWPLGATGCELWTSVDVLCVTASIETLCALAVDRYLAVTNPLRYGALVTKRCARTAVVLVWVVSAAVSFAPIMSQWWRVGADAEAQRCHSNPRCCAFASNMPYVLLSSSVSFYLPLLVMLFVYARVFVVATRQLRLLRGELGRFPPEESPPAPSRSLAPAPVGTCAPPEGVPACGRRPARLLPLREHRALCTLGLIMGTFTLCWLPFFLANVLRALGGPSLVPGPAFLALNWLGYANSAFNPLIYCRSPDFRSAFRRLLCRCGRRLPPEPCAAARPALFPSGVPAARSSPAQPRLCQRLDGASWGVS
- assay name: Compound was evaluated for its inhibitory activity against human beta-3 adrenergic receptor (AR) at a concentration of 100 nM
- Type: functional
Recorded measurements of EC50, one per entry
State just the number; it will be interpreted in nM.

These solved cases illustrate the format of a correct answer.
compound | quantitative result
CCCCCCNC(=O)Nc1ccc(S(=O)(=O)Nc2cccc(-c3ccc(OCC4NCCc5cc(O)c(O)cc54)cc3)c2)cc1 (stereo not drawn) | 10
CCCCCCNC(=O)Nc1ccc(S(=O)(=O)Nc2ccc3cc(CC4NCCc5cc(O)c(O)cc54)ccc3c2)cc1 (stereo not drawn) | 7

Now turn to the next compound.
# compound CCCCCCNC(=O)Nc1ccc(S(=O)(=O)Nc2ccc(OCC3NCCc4cc(O)c(O)cc43)cc2)cc1 (stereo not drawn) ; its EC50 = 4

----------
- measured target: Beta-1 adrenergic receptor (Homo sapiens, UniProt P08588)
- Sequence (P08588 whole entry): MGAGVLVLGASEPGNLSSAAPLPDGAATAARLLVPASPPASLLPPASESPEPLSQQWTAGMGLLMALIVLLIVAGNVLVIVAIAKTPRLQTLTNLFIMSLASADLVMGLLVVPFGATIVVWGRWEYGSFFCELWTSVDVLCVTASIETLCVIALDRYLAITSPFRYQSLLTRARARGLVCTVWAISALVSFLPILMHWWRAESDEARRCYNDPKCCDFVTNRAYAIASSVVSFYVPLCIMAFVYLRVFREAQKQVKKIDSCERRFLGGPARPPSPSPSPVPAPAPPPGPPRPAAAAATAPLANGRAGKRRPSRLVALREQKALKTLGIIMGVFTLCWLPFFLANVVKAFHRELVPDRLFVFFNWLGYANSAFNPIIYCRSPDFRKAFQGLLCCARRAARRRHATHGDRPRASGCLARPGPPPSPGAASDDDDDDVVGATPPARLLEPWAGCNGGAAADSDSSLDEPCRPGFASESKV
- assay name: Compound was evaluated for its inhibitory activity against CHO cells expressing the cloned human beta-1 adrenergic receptor (AR) in the presence of [125I]-iodocyanopindolol
- Type: cell-based
result type: pIC50
Just so you know, pIC50 here is -log10 of the concentration in molar units; reply with that number alone.

# compound COc1cc(-c2ccc(CC3NCCc4cc(O)c(O)cc43)cc2)cc(OC)c1OC (stereo unspecified) ; its pIC50 = 5.74

----------
Recorded measurements of pIC50, one per entry
- measured target: Beta-2 adrenergic receptor (Homo sapiens, UniProt P07550)
- Sequence (P07550 whole entry): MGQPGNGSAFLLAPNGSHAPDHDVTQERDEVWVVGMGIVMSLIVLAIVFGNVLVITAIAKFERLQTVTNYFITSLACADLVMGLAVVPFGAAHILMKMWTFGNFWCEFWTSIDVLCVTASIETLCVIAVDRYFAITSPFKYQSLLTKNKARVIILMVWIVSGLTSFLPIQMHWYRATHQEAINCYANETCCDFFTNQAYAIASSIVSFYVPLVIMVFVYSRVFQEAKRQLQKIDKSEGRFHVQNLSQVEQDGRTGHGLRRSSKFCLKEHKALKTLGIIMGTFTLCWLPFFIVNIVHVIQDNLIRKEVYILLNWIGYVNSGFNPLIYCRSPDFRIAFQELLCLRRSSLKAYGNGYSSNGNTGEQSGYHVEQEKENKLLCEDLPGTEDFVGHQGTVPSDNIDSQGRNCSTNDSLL
- assay name: Compound was evaluated for its inhibitory activity against CHO cells expressing the cloned human beta-2 adrenergic receptor (AR) in the presence of [125I]-iodocyanopindolol
- Assay type: functional, cell-based
Just so you know, pIC50 here is -log10 of the concentration in molar units; reply with that number alone.

These solved cases illustrate the format of a correct answer.
compound | measured target | pIC50
CCCCCCNC(=O)Nc1ccc(S(=O)(=O)Nc2cccc(-c3ccc(CC4NCCc5cc(O)c(O)cc54)cc3)c2)cc1 (stereo not drawn) | Beta-2 adrenergic receptor (Homo sapiens, UniProt P07550) | 4.49
CCCCCCNC(=O)Nc1ccc(S(=O)(=O)Nc2ccc(-c3ccc(OCC4NCCc5cc(O)c(O)cc54)cc3)cc2)cc1 (stereo not drawn) | Beta-2 adrenergic receptor (Homo sapiens, UniProt P07550) | 6.80

Now turn to the next compound.
Field pIC50 (Beta-2 adrenergic receptor (Homo sapiens, UniProt P07550)), entry CCCCCCNC(=O)Nc1ccc(S(=O)(=O)Nc2ccc(-c3ccc(CC4NCCc5cc(O)c(O)cc54)cc3)cc2)cc1 (stereo not drawn) : 5.47

----------
- measured target: Beta-1 adrenergic receptor (Homo sapiens, UniProt P08588)
- assay name: Compound was evaluated for its inhibitory activity against human beta-1 adrenergic receptor (AR)
Recorded measurements of EC50, one per entry
State just the number; it will be interpreted in nM.

These solved cases illustrate the format of a correct answer.
molecule | EC50 / nM
COc1cc(-c2ccc(CC3NCCc4cc(O)c(O)cc43)cc2)cc(OC)c1OC (stereo unspecified) | 6100
CCCCCCNC(=O)Nc1ccc(S(=O)(=O)Nc2cccc(-c3ccc(CC4NCCc5cc(O)c(O)cc54)cc3)c2)cc1 (stereo unspecified) | 970
CCCCCCNC(=O)Nc1ccc(S(=O)(=O)Nc2ccc(-c3ccc(CC4NCCc5cc(O)c(O)cc54)cc3)cc2)cc1 (stereo unspecified) | 1800

Now turn to the next molecule.
# molecule CCCCCCNC(=O)Nc1ccc(S(=O)(=O)Nc2ccc(-c3ccc(OCC4NCCc5cc(O)c(O)cc54)cc3)cc2)cc1 (stereo unspecified) ; its EC50 = 2400
